Target: UniProt P56817
Sequence (P56817 46-501): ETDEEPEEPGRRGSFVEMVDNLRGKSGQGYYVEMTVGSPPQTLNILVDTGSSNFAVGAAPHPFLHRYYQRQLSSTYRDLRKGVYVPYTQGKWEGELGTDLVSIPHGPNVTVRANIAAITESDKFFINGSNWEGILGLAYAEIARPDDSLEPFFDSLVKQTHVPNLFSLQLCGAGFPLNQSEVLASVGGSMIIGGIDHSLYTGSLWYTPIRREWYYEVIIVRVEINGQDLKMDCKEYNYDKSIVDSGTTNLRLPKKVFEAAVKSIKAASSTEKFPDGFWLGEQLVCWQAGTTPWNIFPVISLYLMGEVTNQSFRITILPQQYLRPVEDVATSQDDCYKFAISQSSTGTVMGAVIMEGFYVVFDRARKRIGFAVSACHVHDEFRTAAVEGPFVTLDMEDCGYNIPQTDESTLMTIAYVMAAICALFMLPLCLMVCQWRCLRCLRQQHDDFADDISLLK
Test: In vitro enzymatic BACE1 FRET assay
Format: biochemical
Settings: read-out: IC50 IP (μM) BACE1 Enzyme
The label is rule met for IC50 below 0.002 µM and rule not met for IC50 equal to or exceeding 0.002 µM.

In the record for C#CCOc1cnc(/C(F)=C/c2ccc(F)c([C@@]3(C)N=C(N)S[C@@]4(C(=O)N5[C@H]6COC[C@@H]5COC6)C[C@H]43)c2)cn1 , is IC50 less than 0.002 µM?
rule met

Now the compound C[C@]1(c2cc(/C=C(\F)c3ccc(C#N)cn3)cnc2F)N=C(N)S[C@@]2(C(=O)N3CCC(F)(F)C3)C[C@H]21
rule not met

Now the compound C[C@]1(c2cc(/C=C(\F)c3ccc(C#N)cn3)ccc2F)N=C(N)S[C@@]2(C(=O)N3Cc4ccccc4C3)C[C@H]21 [Example 129, bis(2,2,2-trifluoroacetate)]
rule met

Now the compound C[C@]1(c2cc(/C=C(\F)c3ccc(C#N)cn3)ccc2F)N=C(N)S[C@@]2(C(=O)N3C4CCC3COC4)C[C@H]21
rule met

Now the compound C#CCOc1cnc(/C(F)=C/c2ccc(F)c([C@@]3(C)N=C(N)S[C@@]4(C(C)=O)C[C@H]43)c2)cn1
rule not met

Now the compound C[C@]1(c2cc(/C=C(\F)c3ccc(C#N)cn3)ccc2F)N=C(N)S[C@@]2(C(=O)N3CC4CCC(C3)O4)C[C@H]21
rule not met

Where these numbers come from: patent US10246429B2
